Test system: Calf thymus DNA
Test: Binding affinity to calf thymus DNA assessed as hypochromic effect by UV-visible spectrophotometer
Assay type: nucleic-acid assay
Design: concentration or dose not given beside the values
Settings: Bos taurus
Criterion: Activity strictly under 50%. Met: label 1. Not met: label 0.

-- ask Please check: Activity for `CCN1C(=O)CN/C1=N\c1ccc2cc3ccc(/N=C4\NCC(=O)N4CC)cc3nc2c1` , strictly under 50% or not?
-- reply label 1

-- ask Likewise for `CCCN1C(=O)CN/C1=N\c1ccc2cc3ccc(/N=C4\NCC(=O)N4CCC)cc3nc2c1.Cl` ?
-- reply label 0

-- ask Likewise for `CCCCCN1C(=O)CN/C1=N\c1ccc2cc3ccc(/N=C4\NCC(=O)N4CCCCC)cc3nc2c1` ?
-- reply label 1

-- ask Likewise for `CCCCCCN1C(=O)CN/C1=N\c1ccc2cc3ccc(/N=C4\NCC(=O)N4CCCCCC)cc3nc2c1.Cl` ?
-- reply label 1
